# Measurement Protocol: Solubility of bexagliflozin in aqueous media
# Assay type: physicochemical
# Condition Details: aqueous media at 37° C.
Quantity Measured: solubility

Qu. Supply measured solubility of OC[C@H]1O[C@@H](c2ccc(Cl)c(Cc3ccc(OCCOC4CC4)cc3)c2)[C@H](O)[C@@H](O)[C@@H]1O in your reply.
Ans. ~500 µg/mL

----------
# Measurement Protocol: Pharmacokinetics in cats after capsule dosing
# Format: in vivo, cat
# Condition Details: in vivo, po
Quantity Measured: Tmax

Qu. Supply measured Tmax of OC[C@H]1O[C@@H](c2ccc(Cl)c(Cc3ccc(OCCOC4CC4)cc3)c2)[C@H](O)[C@@H](O)[C@@H]1O [Bexagliflozin] in your reply.
Ans. 36 to 72 min
